IC50, TACI/Jurkat/NF-kB reporter reference
target: recombinant human BAFF (human, UniProt Q9Y275 134-285); test: cell-based or functional assay
Number in nM, nothing else.

Take a look at these entries with their results.
BINDER: WT TACI 13-118-Fc based on the published telitacicept sequence (Fc fusion) SRVDQEERFPQGLWTGVAMRSCPEEQYWDPLLGTCMSCKTICNHQSQRTCAAFCRSLSCRKEQGKFYDHLLRDCISCASICGQHPKQCAYFCENKLRSPVNLPPEL
MEASURE_UNIT: nM
IC50, TACI/Jurkat/NF-kB reporter: 19.6
//
BINDER: Belimumab (antibody, V domains shown) VH: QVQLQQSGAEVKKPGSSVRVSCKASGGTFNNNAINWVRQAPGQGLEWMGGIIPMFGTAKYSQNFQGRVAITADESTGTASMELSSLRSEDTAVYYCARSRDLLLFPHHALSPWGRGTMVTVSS VL: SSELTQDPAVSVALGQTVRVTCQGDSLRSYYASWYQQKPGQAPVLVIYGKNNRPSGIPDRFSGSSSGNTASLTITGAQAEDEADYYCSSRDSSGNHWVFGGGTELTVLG
MEASURE_UNIT: nM
IC50, TACI/Jurkat/NF-kB reporter: 4.8
//
BINDER: Telitacicept (Fc fusion, The drug is a disulfide-linked Fc-fusion homodimer. Only one TACI ECD arm is given, and the Fc is left out., Commercial product (sourced through Clinigen; RemeGen); also called Telitacicept/Tai'ai (RemeGen); WT TACI-Fc (Telitacicept); not shown: Fc part of the commercial drug (Clinigen/RemeGen)) SRVDQEERFPQGLWTGVAMRSCPEEQYWDPLLGTCMSCKTICNHQSQRTCAAFCRSLSCRKEQGKFYDHLLRDCISCASICGQHPKQCAYFCENKLRSPVNLPPEL
MEASURE_UNIT: nM
IC50, TACI/Jurkat/NF-kB reporter: 14.5

Now look at this entry.
Give a short answer stating reported IC50, TACI/Jurkat/NF-kB reporter for 26 TACI CRD2-Fc (Fc fusion, also called TACI (26)-Fc_73; 26 TACI-Fc) SLSCRKEQGEYYDHLLRDCISCASICGQHPKQCADFCENKLRSGSGGGGSEPKSSDKTHTCPPCPAPEAEGAPSVFLFPPKPKDTLMISRTPEVTCVVVDVSHEDPEVKFNWYVDGVEVHNAKTKPREEQYNSTYRVVSVLTVLHQDWLNGKEYKCKVSNKALPAPIEKTISKAKGQPREPQVYTLPPSRDELTKNQVSLTCLVKGFYPSDIAVEWESNGQPENNYKTTPPVLDSDGSFFLYSKLTVDKSRWQQGNVFSCSVMHEALHNHYTQKSLSLSPG .
1.4
